- target of assay: T1, human CD4 on cells (SKW3 cells; human PBMCs) (human, UniProt P01730 26-458)
- T1 construct: whole, on cells; SKW3 CD4 knockout cells served as the negative cell line for the WT vs KO ratios; also called hCD4; SKW3 WT
- test description: FACS confirmation, supernatant on human PBMCs, anti-mFc 647, CD4+ gate
Please provide measured CD4+ gate RL1 Binding for the entries that follow.
Answers are plain numbers.

Solved entries:
Prompt line: # CD4+ gate RL1 Binding lookup, item 75110_05A11A (antibody, V domains shown, Tested as non-clonal hybridoma supernatant (AlivaMab Mouse Kappa), detected with anti-mouse Fc and anti-human kappa) VH: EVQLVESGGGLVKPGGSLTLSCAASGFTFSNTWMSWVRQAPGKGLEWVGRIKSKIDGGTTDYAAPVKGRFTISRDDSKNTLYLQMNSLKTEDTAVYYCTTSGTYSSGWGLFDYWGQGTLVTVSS VL: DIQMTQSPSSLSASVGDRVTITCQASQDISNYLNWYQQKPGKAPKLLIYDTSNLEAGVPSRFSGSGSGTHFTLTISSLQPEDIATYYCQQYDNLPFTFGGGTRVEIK
Response line: 247000

Prompt line: Here is the next binder: 75110_02I18A (antibody, V domains shown, Tested as non-clonal hybridoma supernatant (AlivaMab Mouse Kappa), detected with anti-mouse Fc and anti-human kappa) VH: EVQVVESGGGLVQPGGSLRLSCAASGFTFSSYDMHWVRQATGKGLEWVSTIGTAGDTYYPGSVKGRFTISRENAKNSLYLQMNSLRAGDTAVYYCARGGYYYYGMDVWGQGTTVTVSS VL: EIVLTQSPGTLSLSPGERATLSCRASQSVSSSYLAWYQQKPGQSPRLLIHGASSRATGIPDRVSGSGSGTDFTLTISRLEPEDFAVYYCQQYGSSPFTFGPGTKVDIK
Response line: 275000

Consider the additional binder presented here.
Prompt line: Dear colleague, I am looking for the recorded CD4+ gate RL1 Binding of the following binder: 75110_03I08A (antibody, V domains shown, Tested as non-clonal hybridoma supernatant (AlivaMab Mouse Kappa), detected with anti-mouse Fc and anti-human kappa) VH: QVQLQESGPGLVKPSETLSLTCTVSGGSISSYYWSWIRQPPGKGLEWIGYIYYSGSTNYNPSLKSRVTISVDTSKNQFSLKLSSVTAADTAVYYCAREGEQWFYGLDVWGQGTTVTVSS VL: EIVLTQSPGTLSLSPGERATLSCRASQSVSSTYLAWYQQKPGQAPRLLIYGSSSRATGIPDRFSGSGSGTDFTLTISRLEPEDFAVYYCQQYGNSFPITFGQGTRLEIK
Response line: 338000
